- experimental.system: Cellular tumor antigen p53 (Homo sapiens)
- assay: Primary qHTS for small molecule compounds that upregulate eGFP-tagged delta133p53alpha (in N-terminal) cells. (AID 2060322);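 also: cells pre-induced with doxycycline then dosed without doxycycline; 0% = DMSO vehicle and 100% = reference activator; nearly all actives have a fitted effect of over 75% in size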
- conditions.used: NCI-H358 eGFP-delta133p53alpha fluorescence, 24 h; hits give high values
Records with an inconclusive call do not appear.
Entries and their activation

>  <compound>
N#CCc1ccc(O)cc1O[C@@H]1O[C@H](CO)[C@@H](O)[C@H](O)[C@H]1O

>  <unit.symbol>
%

>  <activation>
-11.6

$$$$
>  <compound>
Cc1oc2ccccc2c1CNC(=O)NCc1cccs1

>  <unit.symbol>
%

>  <activation>
-8.59

$$$$
>  <compound>
COC(=O)C1=C(C)NC(C)=C(C(=O)OCCN2CCN(C(c3ccccc3)c3ccccc3)CC2)C1c1cccc([N+](=O)[O-])c1 (centres undefined)

>  <unit.symbol>
%

>  <activation>
-17.6

$$$$
>  <compound>
CCOC(=O)c1ccc(O)cc1

>  <unit.symbol>
%

>  <activation>
-12.6

$$$$

* * *

- experimental.system: Retinal dehydrogenase 2 (Homo sapiens) (UniProt O94788)
- assay: qHTS for Inhibitors of the Aldehyde Dehydrogenase Family (ALDH1A2) Confirmation screens (AID 2061314); also: nearly all actives have a fitted effect of over 65% in size
- conditions.used: ALDH1A2 enzyme inhibition qHTS confirmation; series mostly up to 45.9 µM
Results filed as inconclusive are left out. Active and inactive are the calls of the source. Calls come from the whole dose curve; as a rule, active = well fitted inhibition curve with a large enough effect; inconclusive = small, poorly fitted or top-dose-only effect; inactive = no such curve, though single readings can be large or run the other way.
Outcome codes: True (active), False (inactive)

>  <compound>
CC[C@@H](Nc1c(Nc2cccc(C(=O)N(C)C)c2O)c(=O)c1=O)c1cc(C(C)C)co1

>  <category.label>
False

$$$$
>  <compound>
COc1cc(NS(=O)(=O)c2ccc([N+](=O)[O-])cc2)c2ncccc2c1

>  <category.label>
True

$$$$
>  <compound>
O=C(N[C@@H](Cc1ccccc1)C(=O)CCl)OCc1ccccc1

>  <category.label>
True

$$$$
>  <compound>
NC(=O)c1cc[n+](CC2=C(C(=O)O)N3C(=O)[C@@H](NC(=O)[C@@H](c4ccccc4)S(=O)(=O)[O-])[C@H]3SC2)cc1

>  <category.label>
False

$$$$
>  <compound>
COCCN(C(=O)c1cc(OC)c(OC)c(OC)c1)c1nc(-c2ccccc2)cs1

>  <category.label>
False

$$$$
>  <compound>
O=C1c2ccccc2NC(c2ccc(-c3cccc([N+](=O)[O-])c3)o2)N1O (centres undefined)

>  <category.label>
True

$$$$
>  <compound>
Cc1cc(NC(=O)c2ccc([S+](=O)([O-])NCc3ccc(Cl)c(Cl)c3)cc2)no1

>  <category.label>
False

$$$$
>  <compound>
N#Cc1ccc(-c2ccc(CNc3ccc(N4CCC(C(F)(F)F)CC4)cc3)o2)cc1

>  <category.label>
False

$$$$
>  <compound>
O=C(O)c1cccc(S(=O)(=O)Nc2nccs2)c1

>  <category.label>
False

$$$$

* * *

- assay: BET inhibitor-based combinations targeting novel dependencies in MECOM-rearranged (r) AML: AML-194 cell line (AID 2202237; also: nearly all actives have a fitted effect of over 40% in size)
- conditions.used: AML-194 (MECOM-r AML) viability, CellTiter-Glo, 48 h; series mostly up to 46 µM
Results filed as inconclusive are left out. The source made the active and inactive calls. Calls come from the whole dose curve; as a rule, active = well fitted inhibition curve with a large enough effect; inconclusive = small, poorly fitted or top-dose-only effect; inactive = flat fitted curve, though single readings scatter.
Outcome codes: YES = active, NO = inactive

>  <query.smiles>
COc1cccc([C@@H](C)NCCCc2ccccc2Cl)c1

>  <category.label>
YES

$$$$
>  <query.smiles>
Cc1cnc(C(=O)NCCc2ccc(S(=O)(=O)NC(=O)NC3CCCCC3)cc2)cn1

>  <category.label>
NO

$$$$
>  <query.smiles>
CC[C@H]1CN2CCc3cc(OC)c(OC)cc3[C@@H]2C[C@@H]1C[C@H]1NCCc2cc(OC)c(OC)cc21

>  <category.label>
YES

$$$$
>  <query.smiles>
C[C@]12CCC(=O)C=C1CC[C@@H]1[C@@H]2[C@@H](O)C[C@@]2(C)[C@H]1CC[C@]2(O)C(=O)CO

>  <category.label>
NO

$$$$
